assay: ATG_TGFb_CIS: Attagene CIS-FACTORIAL HepG2 Assay for human Transforming Growth Factor (TGF) (AID 2282967); conditions: HepG2 Attagene CIS TGFb reporter, mRNA transcription; actives raise or lower the signal
Activity calls are given as the source filed them. Rule for the calls: active = hit-call score of the fitted dose curve at least 0.9, where 1 is the maximum; inactive = score below 0.9.
The reply should be one of these categories: active, inactive

Lookup: Record lookup: outcome of this test for `Clc1nc(Cl)nc(Cl)n1` ?
Found: inactive

Lookup: Same question for `O=[N+]([O-])c1ccc2c3c(cccc13)CC2` please.
Found: active

Lookup: Same question for `CC(C)CCCCCCOC(=O)c1ccccc1C(=O)OCCCCCCC(C)C` please.
Found: inactive

Lookup: Same question for `CC(C)(C)CC(C)(C)c1ccc(O)cc1` please.
Found: inactive

Lookup: Same question for `COC(=O)c1sccc1S(=O)(=O)NC(=O)Nc1nc(C)nc(OC)n1` please.
Found: inactive

Lookup: Same question for `OCc1ccco1` please.
Found: inactive

Lookup: Same question for `O=S(=O)(c1ccc(Cl)cc1)c1ccc(Cl)cc1` please.
Found: inactive

Lookup: Same question for `CC(C)OC(=O)Nc1ccccc1` please.
Found: inactive

Lookup: Same question for `COc1cc(-c2ccc(N)c(OC)c2)ccc1N` please.
Found: inactive

Lookup: Same question for `Cn1sc(Cl)cc1=O` please.
Found: inactive

Data provenance is PubChem BioAssay (EPA / NIEHS).
